test: self-splicing fitness, log relative to wild type (ln ratio); higher = more splicing; Tetrahymena group I intron in knt gene, E. coli kanamycin selection, DiMSum; sequences stand for … in CUCUCU…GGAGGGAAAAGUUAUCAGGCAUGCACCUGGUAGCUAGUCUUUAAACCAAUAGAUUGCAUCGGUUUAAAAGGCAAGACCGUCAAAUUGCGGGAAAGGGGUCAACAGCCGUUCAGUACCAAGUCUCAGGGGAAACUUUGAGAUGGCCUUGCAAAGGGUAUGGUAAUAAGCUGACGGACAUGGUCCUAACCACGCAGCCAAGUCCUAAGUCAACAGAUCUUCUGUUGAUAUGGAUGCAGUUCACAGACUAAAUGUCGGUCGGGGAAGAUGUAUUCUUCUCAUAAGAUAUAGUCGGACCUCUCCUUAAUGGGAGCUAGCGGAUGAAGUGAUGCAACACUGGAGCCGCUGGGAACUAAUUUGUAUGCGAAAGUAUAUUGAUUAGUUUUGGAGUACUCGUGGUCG; conditions: 30 °C;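 note: selection with 25 µg/mL kanamycin versus none on LB agar overnight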
value.type: self-splicing fitness (ln)
Numbers only.

Check out these entries, answers already filled in.
{"sequence.code": "ACAGAGCAAUAUUACGUACU", "self-splicing fitness (ln)": -2.96}
{"sequence.code": "AUUUAGCAAUAUUACGACCU", "self-splicing fitness (ln)": 0.0405}
{"sequence.code": "UAGCAGCAAUAUUACGGCUA", "self-splicing fitness (ln)": -2.89}
{"sequence.code": "UGAGAGCAAUAUUACGAACA", "self-splicing fitness (ln)": -0.706}
{"sequence.code": "CAGAAGCAAUAUUACGUCAA", "self-splicing fitness (ln)": -2.46}
{"sequence.code": "UAGGAGCAAUAUUACGUCUU", "self-splicing fitness (ln)": -3.16}

Below is a list of sequences. For each, state its recorded self-splicing fitness (ln).
1. CGCUAGCAAUAUUACGAUUC
2. AGGGAGCAAUAUUACGUCUU
3. ACAAAGCAAUAUUACGCCGC
4. AGGGAGCAAUAUUACGAGCG

[-3.29, -2.53, -3.43, -2.94]

Below is a list of sequences. For each, state its recorded self-splicing fitness (ln).
1. UGCAAGCAAUAUUACGUUGU
2. UGGAAGCAAUAUUACGAUGA
3. GCCGAGCAAUAUUACGCCCC
4. AGCAAGCAAUAUUACGGGAA

[-4.31, -0.768, -1.58, -2.65]

Below is a list of sequences. For each, state its recorded self-splicing fitness (ln).
1. GUGUAGCAAUAUUACGAGCU
2. GCAUAGCAAUAUUACGCAGU
3. GGAUAGCAAUAUUACGUUAC
4. UAAAAGCAAUAUUACGUCCU
5. UCCUAGCAAUAUUACGAUCA
6. CGGGAGCAAUAUUACGUUCU

1: -2.36; 2: -4.08; 3: -1.87; 4: -0.564; 5: -2.01; 6: -3.58

Below is a list of sequences. For each, state its recorded self-splicing fitness (ln).
1. GGCCAGCAAUAUUACGCACG
2. CAGGAGCAAUAUUACGCCGC

1. -1.18
2. -2.74

Below is a list of sequences. For each, state its recorded self-splicing fitness (ln).
1. CCUCAGCAAUAUUACGCACA
2. ACUCAGCAAUAUUACGUAGA
3. AAGCAGCAAUAUUACGGCUU
4. CUCAAGCAAUAUUACGAGAU
5. GGCCAGCAAUAUUACGCGUU
6. AGCGAGCAAUAUUACGCAAG
7. CGCGAGCAAUAUUACGUAAU

[-3.09, -1.41, -3.42, -3.89, -0.164, -3.18, -3.36]

Below is a list of sequences. For each, state its recorded self-splicing fitness (ln).
1. AGGAAGCAAUAUUACGCUCC
2. GGCAAGCAAUAUUACGUACA
3. AGCGAGCAAUAUUACGCGAG
4. AUGGAGCAAUAUUACGGGAG

-1.87
-0.414
-1.35
-2.75

Below is a list of sequences. For each, state its recorded self-splicing fitness (ln).
1. UAGCAGCAAUAUUACGCAAG
2. CCCUAGCAAUAUUACGAGCU

[-3.04, -4.02]

Below is a list of sequences. For each, state its recorded self-splicing fitness (ln).
1. UAAUAGCAAUAUUACGUAGC
2. CCAAAGCAAUAUUACGGGGA

[-2.63, -3.41]
